- System: HT-1080.hFAP and HT-1080.wt xenografts
- Experiment: Quantitative biodistribution in HT-1080.hFAP and HT-1080.wt xenografted mice
- Format: in vivo
- Condition Summary: FAP-negative tumor, 4 hours p.i.
Test Readout: Biodistribution HT-1080.wt (% I.A./g)
API: value field is a number in % I.A./g; no unit string.

So for N#C[C@@H]1CC(F)(F)CN1C(=O)CNC(=O)c1ccnc2ccc(NC(=O)CCC(=O)NCCNC(=O)CC[C@H](C(=O)O)N3CCN4CCN(CC3)CC(=O)[O][61Cu][O]C(=O)C4)cc12 [[^61Cu]Cu-NODAGA-F1] , the logged Biodistribution HT-1080.wt turned out to be 2.1

Given item CN(C(=O)CCC(=O)NCCNC(=O)CC[C@H](C(=O)O)N1CCN2CCN(CC1)CC(=O)[O][61Cu][O]C(=O)C2)c1ccc2nccc(C(=O)NCC(=O)N3CC(F)(F)C[C@H]3C#N)c2c1 [[^61Cu]Cu-NODAGA-F2] , the value recorded as its Biodistribution HT-1080.wt is 0.9

Biodistribution HT-1080.wt recorded for this molecule, CN(C(=O)CCC(=O)N1CCN(C(=O)CC[C@H](C(=O)O)N2CCN3CCN(CC2)CC(=O)[O][61Cu][O]C(=O)C3)CC1)c1ccc2nccc(C(=O)NCC(=O)N3CC(F)(F)C[C@H]3C#N)c2c1 [[^61Cu]Cu-NODAGA-F4] , is 0.6

Now consider the entry below.
Recorded result, N#C[C@@H]1CC(F)(F)CN1C(=O)CNC(=O)c1ccnc2ccc(NC(=O)CCC(=O)N3CCN(C(=O)CC[C@H](C(=O)O)N4CCN5CCN(CC4)CC(=O)[O][61Cu][O]C(=O)C5)CC3)cc12 [[^61Cu]Cu-NODAGA-F3] , Biodistribution HT-1080.wt: 1.8

----------
- Test system: HT-1080.hFAP and HT-1080.wt xenografts
- Experiment: Quantitative biodistribution in HT-1080.hFAP and HT-1080.wt xenografted mice
- Format: in vivo
- Condition Summary: 1 h p.i., HT-1080.hFAP and HT-1080.wt xenografts
- Description: The tumors were allowed to grow to an average volume of 100-200 mm3. Biodistribution Studies: The xenografted mice were randomized (n=5 per group) and injected intravenously via the tail vein with the ^61Cu-labeled radioligands (100 μL, […], 0.8-1MBq). Mice were euthanized 1h and 4h pi. by CO2 asphyxiation. Organs of interest and blood were collected, rinsed of excess blood, blotted dry, weighed, and counted in a 7-counter. […]
Test Readout: Biodistribution Muscle

Illustrative cases are given below, each with its answer.
Biodistribution Muscle for CN(CCCN1CCN(C(=O)CCC(C(=O)O)N2CCN3CCN(CC2)CC(=O)[O][61Cu][O]C(=O)C3)CC1)c1ccc2nccc(C(=O)NCC(=O)N3CC(F)(F)C[C@H]3C#N)c2c1 (some centres unmarked) [[^61Cu]Cu-NODAGA-FAPI-46] is 1.7 ± 0.1 % IA/g

So, N#C[C@@H]1CC(F)(F)CN1C(=O)CNC(=O)c1ccnc2ccc(NC(=O)CCC(=O)N3CCN(C(=O)CC[C@H](C(=O)O)N4CCN5CCN(CC4)CC(=O)[O][61Cu][O]C(=O)C5)CC3)cc12 [[^61Cu]Cu-NODAGA-F3] ? Its Biodistribution Muscle was 2.1 ± 0.8 % IA/g

Consider N#C[C@@H]1CC(F)(F)CN1C(=O)CNC(=O)c1ccnc2ccc(NC(=O)CCC(=O)NCCNC(=O)CC[C@H](C(=O)O)N3CCN4CCN(CC3)CC(=O)[O][61Cu][O]C(=O)C4)cc12 [[^61Cu]Cu-NODAGA-F1] . Its measured Biodistribution Muscle is 2.6 ± 0.7 % IA/g

The value of Biodistribution Muscle measured for the compound CN(C(=O)CCC(=O)N1CCN(C(=O)CC[C@H](C(=O)O)N2CCN3CCN(CC2)CC(=O)[O][61Cu][O]C(=O)C3)CC1)c1ccc2nccc(C(=O)NCC(=O)N3CC(F)(F)C[C@H]3C#N)c2c1 [[^61Cu]Cu-NODAGA-F4] turned out to be 0.8 ± 0.2 % IA/g

# input for lookup
Documented Biodistribution Muscle of CN(C(=O)CCC(=O)NCCNC(=O)CC[C@H](C(=O)O)N1CCN2CCN(CC1)CC(=O)[O][61Cu][O]C(=O)C2)c1ccc2nccc(C(=O)NCC(=O)N3CC(F)(F)C[C@H]3C#N)c2c1 [[^61Cu]Cu-NODAGA-F2] : 0.9 ± 0.1 % IA/g
